# System: COLO 205 colon
# ASSAY PROTOCOL: NCI tumour cell line growth inhibition, 48 h
MEASUREMENT TYPE: TGI (µM)
Hi! Could you send only the number? It should be in µM, unit omitted.

Consider the worked cases shown below.
-- ask Need TGI of C/C=C1\C(=O)O[C@@H]2C1C[C@@H]1O[C@H]2[C@H](C)CCC/C(C)=C/CC[C@@]1(C)O (stereo partly drawn) , thanks.
-- reply 41.8

-- ask May I ask what TGI has been recorded for O=C(Nc1ccc(Cl)cc1)c1cc2cc(F)ccc2cc1O ?
-- reply 6.4

-- ask Requested field: TGI. Item: CN(C)CCNC1=CC(=O)c2c(O)ccc(O)c2C1=O
-- reply 3.63

-- ask May I ask what TGI has been recorded for CCn1cc(C(=O)N/N=C/c2cccc(F)c2)c(=O)c2cc(F)c(N3CCNC(C)C3)c(F)c21 (stereo not drawn) ?
-- reply 3.25

-- ask For N#CC(N=Nc1ccccc1)c1nc2ccccc2o1 (stereo not drawn) , what is its reported TGI?
-- reply 68.7

-- ask What value of measured TGI is listed for C/C(=N\O)c1cccc(Nc2nc3ccccc3c3occc23)c1 ?
-- reply 26.4

-- ask Which value of TGI has been reported for O=S1c2ccccc2N=C(c2ccc(Cl)cc2)CC1c1cccs1 (stereo not drawn) in the records?
-- reply 41

-- ask Report TGI for COc1c(B(O)O)cccc1-c1nc2c(F)cc3[nH]ncc3c2c2c1CCCC2 please.
-- reply 6.19

Further cases:
-- ask Which TGI value belongs to CC(=N/NC(=S)N1CCCCC1)/C(C)=N\NC(=S)N1CCCCC1 ?
-- reply 3.62

-- ask Quick one: TGI for Oc1ccc2ccccc2c1N=Nc1ccccn1 ?
-- reply 21.4
